Where these numbers come from: ChEMBL document CHEMBL1129270

target: Human immunodeficiency virus type 1 protease (Human immunodeficiency virus 1) (UniProt Q72874)
experiment_summary: In vivo for antiviral activity (ED90) against HIV-1 protease.
Format: organism-based
Note to self: ED90 under 100 nM means YES, ties and anything higher get NO.

compound	category
COC(=O)N[C@H](C(=O)N[C@@H](Cc1ccccc1)C(O)CN(Cc1ccc(OC)cc1)NC(=O)[C@@H](NC(=O)OC)C(C)C)C(C)C (stereo partly drawn)	YES
COCCOCCOC(=O)NC(C(=O)N[C@@H](Cc1ccccc1)[C@H](O)CN(CC1CCCCC1)NC(=O)C(NC(=O)OCCOCCOC)C(C)C)C(C)C (stereo partly drawn)	NO
COC(=O)N[C@H](C(=O)N[C@@H](Cc1ccccc1)C(O)CN(CC(C)C)NC(=O)[C@@H](NC(=O)OC)C(C)C)C(C)C (stereo partly drawn)	NO
CC(C)C(NC(=O)OCc1ccccc1)C(=O)NN(CC1CCCCC1)C[C@H](O)[C@H](Cc1ccccc1)NC(=O)[C@H](CC(N)=O)NC(=O)c1ccc2ccccc2n1 (stereo partly drawn)	YES
COC(=O)N[C@H](C(=O)N[C@@H](Cc1ccccc1)C(O)CN(CCC(C)C)NC(=O)[C@@H](NC(=O)OC)C(C)C)C(C)C (stereo partly drawn)	YES

Please indicate whether the reported ED90 of CCOC(=O)NC(C(=O)NN(CC1CCCCC1)C[C@H](O)[C@H](Cc1ccccc1)NC(=O)[C@H](CC(N)=O)NC(=O)c1ccc2ccccc2n1)C(C)C (stereo partly drawn) is strictly below 100 nM.
YES

Please indicate whether the reported ED90 of COC(=O)NC(C(=O)NN(CC(C)C)C[C@H](O)[C@H](Cc1ccccc1)NC(=O)[C@H](CC(N)=O)NC(=O)c1ccc2ccccc2n1)C(C)C (stereo partly drawn) is strictly below 100 nM.
NO

Please indicate whether the reported ED90 of COC(=O)N[C@H](C(=O)N[C@@H](Cc1ccccc1)C(O)CN(Cc1ccc(O)cc1)NC(=O)[C@@H](NC(=O)OC)C(C)C)C(C)C (stereo partly drawn) is strictly below 100 nM.
NO
